Just for reference, patent US20220064314A1 is where these values come from.

Assayed Target: T1, 4-1BB (CD137), antigen of the Octet kinetics (UniProt Q07011 24-186, limits assumed)
T1 construct: also called TNFRSF9
Assay Details: Octet (BLI), mono-valent binding kinetics
Each entry below carries its recorded T1/2 Life.
Numbers only; they are read as min.

For huF1.1.G2.4.4 (antibody, human IgG2, kappa, V domains shown, also called huF1.1.4.4) VH: QVQLVQSGAEVKKPGASVKMSCKASGYTFTFYTMHWLKQAPGQGLEWIGYINPSSGYTNYNQKFTDRATLTADKSTSTAYMELSSLRSEDTAVYYCARSDGSSSKWYFDVWGQGTTVTVSS VL: EIVLTQSPDFQSATPKEKVTITCRASSSVSYIHWYQQKPGSSPKAWISATSNLASGVPSRFSGSGSGTSYTLTINRVEAEDAATYYCQQWSSNPFTFGQGTKLEIKR , write its T1/2 Life.
1.9

For huG28.21.G2.4.4 (antibody, human IgG2, kappa, V domains shown, also called huG28.21.4.4) VH: EVQLQQSGAEVKKPGATVKLSCKASGFNIKDYYIHWVNQRPGQGLEWIGRIDPEDGDIAYAPKFQDRATLTVDTSTNTAYLELSSLRSEDTAVYYCTTGNYYAMDFWGQGTTVTVSS VL: QIVLTQSPATLSASPGERVTLSCTASSSVSSSYLHWYQQKPGSSPKLWIYSTSNLASGVPARFSGSGPGTSYTLTISSMEPEDAATYYCHQYHRSPPTFGQGTKLEIKR , write its T1/2 Life.
2.5

For cAb 137QL.F1.1.G2 (antibody, human IgG2, V domains shown, Chimeric antibody; also called Chimeric F1.1; cAb F1.1.G2) VH: QVQLQQSGAELARPGASVKMSCKASGYTFTFYTMHWLKQRPGQGLEWIGYINPSSGYTNYNQKFTDKATLTADKSSSTAYMQLSSLTSEDSAVYYCARSDGSSSKWYFDVWGTGTTVTVSS VL: QIVLSQSPTILSASPGEKVTMTCRASSSVSYIHWYQQKPGSSPKAWISATSNLASGVPARFSGSGSGTSYSLTISRVEAEDAATYYCQQWSSNPFTFGSGTKLEIK , write its T1/2 Life.
2
